# Test system: H9
# Procedure Text: Concentration required to inhibit 50% growth of uninfected H9 cells
# Assay type: functional, cell-based
# Condition Set: Homo sapiens
pIC50: −log10 of the molar value.
Measured pIC50 accompanies every entry in the list below.
Measured Parameter: pIC50

Compound	Reported Value
CCCC1(C)Oc2ccc3c(C)cc(=O)oc3c2[C@@H](OC(=O)C23CCC(C)(C(=O)O2)C3(C)C)[C@H]1OC(=O)C12CCC(C)(C(=O)O1)C2(C)C (some centres not stated)	< 4.42
CCC1(C)Oc2ccc3c(C)cc(=O)oc3c2[C@@H](OC(=O)C23CCC(C)(C(=O)O2)C3(C)C)[C@H]1OC(=O)C12CCC(C)(C(=O)O1)C2(C)C (some centres not stated)	< 4.42
CCC1(CC)Oc2ccc3c(C)cc(=O)oc3c2[C@@H](OC(=O)C23CCC(C)(C(=O)O2)C3(C)C)[C@H]1OC(=O)C12CCC(C)(C(=O)O1)C2(C)C (some centres not stated)	< 4.42
Cc1cn([C@H]2C[C@H](N=[N+]=[N-])[C@@H](CO)O2)c(=O)[nH]c1=O [ZIDOVUDINE]	2.73
CC1(C)Oc2ccc3ccc(=O)oc3c2[C@@H](OC(=O)C23CCC(C)(C(=O)O2)C3(C)C)[C@H]1OC(=O)C12CCC(C)(C(=O)O1)C2(C)C (some centres not stated)	< 4.79
Cc1cc(=O)oc2c3c(ccc12)OC(C)(C)[C@H](OC(=O)C12CCC(C)(C(=O)O1)C2(C)C)[C@@H]3OC(=O)C12CCC(C)(C(=O)O1)C2(C)C (some centres not stated)	< 4.41
Cc1cc(=O)oc2c3c(ccc12)OC[C@H](OC(=O)C12CCC(C)(C(=O)O1)C2(C)C)[C@@H]3OC(=O)C12CCC(C)(C(=O)O1)C2(C)C (some centres not stated)	< 4.39
